test: small-molecule microarray binders of probe aEGFR, primary screen, biochemical, biotinylated probe, 635/667 nm fluorescence (AID 1097); details: higher = more signal;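 further: probe is a biotinylated anti-EGFR antibody binding compounds printed on slides; score combines fluorescence near 667 nm and signal to noise of each spot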
Where composite z-score equals or exceeds -0.05, the correct label is Fulfilled; where it does not, the label is Not fulfilled.

Example results:
Does composite z-score meet or surpass -0.05 for COC(=O)[C@@H]1CC[C@H](C)[C@@H](c2ccc(C)cc2)N1C(=O)c1ccc(C=NO[C@@H](C)c2cc(-c3c(C)cc(C)cc3C)no2)cc1 ?
Not fulfilled

Is composite z-score at least -0.05? Consider CC(=O)OC[C@H]1O[C@H](CC=NO[C@@H](C)c2cn([C@H](CO)Cc3ccccc3)nn2)C=C[C@@H]1OC(C)=O
Fulfilled

Say whether COC(=O)C(C(=O)OC)C1CCCC(=O)C1 (stereo not given) shows composite z-score of -0.05 or more.
Not fulfilled

New cases:
Textbook exercise: given the entry C[C@H]1CC[C@@H](C(=O)O)N[C@@H]1c1ccc(C#Cc2ccccc2)cc1 , state whether its composite z-score is greater than or equal to -0.05.
Fulfilled

* * *

tested on: Chordin-like protein 2 (CHRDL2); assay: CHRDL2 small-molecule binders, primary screen, biochemical, small-molecule microarray, 635 nm fluorescence (AID 1126); conditions: small-molecule microarray binding, fluorescence 635 nm; higher = more signal;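 further: printed compound slides probed with Chrdl2 protein at 4 µg/mL for 1 h at 4 C; score merges 667 nm emission intensity with signal to noise over three replicate slides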
If the reported composite z-score equals or exceeds 0.8, assign rule met. If not, assign rule not met.

Past entries and their recorded results:
Given the entry CC(C)=CCCC(C)=CCON=C1C[C@@H](O)[C@@H](O)[C@@H]2[C@@H]3C(=O)N(Cc4ccc5c(c4)OCO5)C(=O)[C@@H]3CC[C@H]12 , answer whether its composite z-score meets or surpasses 0.8.
rule met

Given the entry C[C@@H]1CC[C@H]2C(=O)O[C@@H](COc3ccc(C(C)(C)C)cc3)CN2[C@H]1c1ccc(Br)cc1 , answer whether its composite z-score meets or surpasses 0.8.
rule not met

Evaluate CO[C@H]1COC(=O)[C@H](C)COC(=O)[C@H](C)NC(=O)CC=C[C@H]1C : composite z-score at minimum 0.8?
rule met

Form field: composite z-score at least 0.8? Entry: CCN1C(=O)[C@H]2[C@H]3[C@H](O)[C@H](O)CC(=NOC(C)CN4CCCc5nc(C)c(C)cc54)[C@@H]3CC[C@H]2C1=O (stereo not given in full)
rule met

Textbook exercise: given the entry O=C1[C@H]2[C@H]3[C@H](O)[C@H](O)CC(=NO[C@@H]4O[C@H](CO)[C@@H](O)[C@H](O)[C@H]4O)[C@H]3CC[C@H]2C(=O)N1c1ccc(F)cc1F , state whether its composite z-score is greater than or equal to 0.8.
rule not met

Others:
Evaluate CC(=O)OC[C@H]1O[C@@H](ON=C(C)CCC(=O)OC[C@H]2O[C@H](C#Cc3ccccc3)C=C[C@@H]2Oc2ccc(C)cc2)[C@H](OC(C)=O)[C@@H](OC(C)=O)[C@@H]1OC(C)=O : composite z-score at minimum 0.8?
rule not met

Answer whether composite z-score of O=C1[C@H]2[C@H]3[C@H](O)[C@H](O)CC(=NOC[C@@H](O)COCc4ccco4)[C@@H]3CC[C@H]2C(=O)N1c1cccc(Oc2ccccc2)c1 is greater than or equal to 0.8.
rule not met

Is reported composite z-score greater than or equal to 0.8 here: COCOc1ccc(Br)cc1C(=O)C=Cc1ccc2c(c1)OCO2
rule not met

Given the entry COC(=O)C(C(=O)OC)C1CCCC(=O)C1 (stereo not given) , answer whether its composite z-score meets or surpasses 0.8.
rule not met

Form field: composite z-score at least 0.8? Entry: CC=CC1=C(CO)[C@H](O)[C@H]2O[C@H]2[C@@H]1O
rule not met
